tested on: Nuclear hormone receptor DAF-12 (Strongyloides stercoralis); test: S. stercoralis DAF-12 nuclear receptor activators, primary screen, cell-based, luminescence, HEK293, GRIP1 co-expression, lit1-tk-luc (AID 652126); conditions: HEK293 ssDAF-12/GRIP1 lit1-tk-luc reporter, at 6.8 µM, stronger effect = higher value, % of 3 µM dafachronic acid response;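 also: 0% = DMSO-only wells and 100% = 3 µM delta7-dafachronic acid wells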
The campaign covered roughly 370,000 compounds. About 3,700 (1%) were called active. This excerpt belongs to a sample that is enriched for actives.
Catalogue of activation values

Guide cases for activation, answers given:
molecule	parameter	result
O=C(Nc1cccc(Cl)c1)OC1CC2CC1[C@H]1CCCCN1[C@H]2Cc1ccccc1 (stereo partly specified)	activation	-1.06% (inactive)
O=C(O)c1ccc([N+](=O)[O-])cc1Sc1ccsc1	activation	-1.44% (inactive)
NCC(=O)c1cccc2ccc[n+]([O-])c12	activation	-0.72% (inactive)
COc1ccc(-n2c(SCC(=O)NC3CCCC3)nnc2-c2ccncc2)cc1	activation	-0.71% (inactive)
Cc1ccc(NC(=O)N2CCC(O)(c3cccnc3)CC2)cc1	activation	-1.43% (inactive)

Lookup: Enter activation (test system Nuclear hormone receptor DAF-12 (Strongyloides stercoralis)) for O=[N+]([O-])c1ccc2oc(-c3cccc(O)c3)nc2c1
Found: 3.74% (active)

Lookup: Enter activation (test system Nuclear hormone receptor DAF-12 (Strongyloides stercoralis)) for COc1ccc(S[C@]2(C(=O)N(C)C)CC(=O)N(c3ccc(OC)cc3)[C@@H]2c2ccc(OC)cc2)cc1
Found: -1.42% (inactive)

Lookup: Enter activation (test system Nuclear hormone receptor DAF-12 (Strongyloides stercoralis)) for Cc1cc(Br)cn2c(Cc3ccccc3C(F)(F)F)c(C3CCCCC3)nc12
Found: -0.29% (inactive)

Lookup: Enter activation (test system Nuclear hormone receptor DAF-12 (Strongyloides stercoralis)) for Cc1cccc(-n2c(O)c(C=Nc3ccccc3N)c(=O)[nH]c2=O)c1
Found: 1.8% (active)

Lookup: Enter activation (test system Nuclear hormone receptor DAF-12 (Strongyloides stercoralis)) for O=C(Nc1nc2ccc(Cl)cc2s1)c1cc(-c2ccc(Cl)cc2)nc2ccccc12
Found: 0.48% (inactive)

Lookup: Enter activation (test system Nuclear hormone receptor DAF-12 (Strongyloides stercoralis)) for Nc1[nH]c(/C=C2/CCCCC2n2[nH]c(=O)n(-c3ccccc3)c2=O)c(Cc2ccccc2)[n+]1Cc1ccccc1 (stereo unspecified)
Found: -1.51% (inactive)

Lookup: Enter activation (test system Nuclear hormone receptor DAF-12 (Strongyloides stercoralis)) for O=C(CCCCCN1C(=O)C2C3C=CC(C3)C2C1=O)Nc1ccccc1 (stereo unspecified)
Found: -1.12% (inactive)

Lookup: Enter activation (test system Nuclear hormone receptor DAF-12 (Strongyloides stercoralis)) for COc1ccc(-c2cc(-c3nnc(SCC(=O)Nc4cccc5ccccc45)n3N)[nH]n2)cc1
Found: -1.73% (inactive)

Lookup: Enter activation (test system Nuclear hormone receptor DAF-12 (Strongyloides stercoralis)) for CC(NC(=O)COC(=O)c1ccc2ccccc2n1)c1ccccc1 (stereo unspecified)
Found: -0.49% (inactive)

Lookup: Enter activation (test system Nuclear hormone receptor DAF-12 (Strongyloides stercoralis)) for O=C(COc1ccccc1Cl)Nc1ccccc1C(=O)NC1CC1
Found: -0.61% (inactive)

Lookup: Enter activation (test system Nuclear hormone receptor DAF-12 (Strongyloides stercoralis)) for COc1ccccc1Cc1c(-c2ccc(F)cc2)nc2ccc(C)cn12
Found: 0.07% (inactive)
